- Target Or System: Sigma 2 receptor
- Assay Details: Inhibitory activity against opioid sigma 2 receptor in rat cerebral cortex using [3H]DTG (+300 nM (+)pentazocine) as radio ligand at pH 7.5 for 120 min at 22 degree C
So I've got a bunch of molecules here, and I need their pIC50 values.
Entry type: numeric. Quantity: pIC50, the -log10 of concentration in molar units.

Qu. Respond only with pIC50 recorded for "CN(CCCCc1ccccc1)CCN1C(=O)[C@@H]2Cc3ccccc3CN2C1=O"
Ans. 6.45

Qu. Please look at this molecule and report its pIC50: "CN(CCCN1C(=O)[C@@H]2Cc3ccccc3CN2C1=O)CCc1ccccc1"
Ans. 7.68

Qu. Please list pIC50 recorded for the molecule "CN(CCCN1C(=O)[C@@H]2Cc3ccccc3CN2C1=O)Cc1ccccc1"
Ans. 6.30

Qu. Give the measured pIC50 for "CN(CCCCCN1C(=O)[C@@H]2Cc3ccccc3CN2C1=O)Cc1ccccc1"
Ans. 7.09

Qu. Write down pIC50 measured for item "CN(CCN1C(=O)[C@@H]2Cc3ccccc3CN2C1=O)Cc1ccccc1"
Ans. 6.01

----------
- Target Or System: Sigma non-opioid intracellular receptor 1 (Cavia porcellus) (UniProt Q60492)
- Sequence (Q60492 whole entry, looked up): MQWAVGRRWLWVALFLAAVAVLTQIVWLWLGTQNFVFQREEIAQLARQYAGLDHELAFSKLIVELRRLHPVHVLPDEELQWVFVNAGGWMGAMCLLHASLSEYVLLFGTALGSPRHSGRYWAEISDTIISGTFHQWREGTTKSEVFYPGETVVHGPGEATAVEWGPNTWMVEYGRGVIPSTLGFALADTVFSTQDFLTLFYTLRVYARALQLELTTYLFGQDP
- Assay Details: Selectivity index against opioid receptor sigma 1 versus cytotoxicity to that of inhibitory concentration
Outcome label depends on IS relative to 10000: at/above gives yes, below gives no.

Qu. Reported IS reaches at least 10000 for "CN(CCCCN1C(=O)[C@@H]2Cc3ccccc3CN2C1=O)CCc1ccccc1" ?
Ans. yes

Qu. Confirm if IS reported for the compound "O=C1[C@@H]2Cc3ccccc3CN2C(=O)N1CCCNCCCCc1ccccc1" is 10000 or above.
Ans. no

Qu. // inclusive: IS at least 10000? input: "CN(CCCCCN1C(=O)[C@@H]2Cc3ccccc3CN2C1=O)Cc1ccccc1"
Ans. yes

Qu. Textbook exercise: given the entry "CN(CCN1C(=O)[C@@H]2Cc3ccccc3CN2C1=O)Cc1ccccc1" , state whether its IS is greater than or equal to 10000.
Ans. yes

----------
- Target Or System: Sigma 2 receptor
- Assay Details: Inhibitory activity against opioid sigma 2 receptor in rat cerebral cortex using [3H]DTG (+300 nM (+)pentazocine) as radio ligand at pH 7.5 for 120 min at 22 degree C
pIC50: −log10 of the molar value.
Field: pIC50. Provide a value for each of the compounds that follow.

Qu. Give a short answer stating reported pIC50 for "CN(CCCCCc1ccccc1)CCN1C(=O)[C@@H]2Cc3ccccc3CN2C1=O" .
Ans. < 6.00

Qu. Provide only the value of recorded pIC50 for "O=C1[C@@H]2Cc3ccccc3CN2C(=O)N1CCN1CCCCC1"
Ans. < 6.00

Qu. Output pIC50 of "O=C1[C@@H]2Cc3ccccc3CN2C(=O)N1CCCNCc1ccccc1"
Ans. < 6.00

Qu. Identify measured pIC50 corresponding to "CN(CCCCN1C(=O)[C@@H]2Cc3ccccc3CN2C1=O)Cc1ccccc1"
Ans. < 7.00
